Target: T1, rhCD39-ECD-His (R&D Systems) (human, UniProt P49961 38-478)
T1 construct: Bought protein; that entry runs on through the C-terminal transmembrane and cytoplasmic residues; also called recombinant human CD39 extracellular domain; soluble recombinant human CD39 (ENTDP1) ECD; not shown: His tag
T1 sequence: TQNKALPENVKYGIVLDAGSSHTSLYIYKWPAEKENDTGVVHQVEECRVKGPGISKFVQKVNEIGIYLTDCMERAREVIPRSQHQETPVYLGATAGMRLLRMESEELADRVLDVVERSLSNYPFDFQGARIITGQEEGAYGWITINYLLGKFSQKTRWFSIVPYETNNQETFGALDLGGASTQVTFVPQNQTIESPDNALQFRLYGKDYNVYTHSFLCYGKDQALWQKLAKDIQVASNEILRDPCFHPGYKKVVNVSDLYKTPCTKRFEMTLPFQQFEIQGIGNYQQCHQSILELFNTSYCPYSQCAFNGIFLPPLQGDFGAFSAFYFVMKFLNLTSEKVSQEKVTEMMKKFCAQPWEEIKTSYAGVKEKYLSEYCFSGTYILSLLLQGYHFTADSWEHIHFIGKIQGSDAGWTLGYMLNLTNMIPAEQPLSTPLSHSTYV
Test: BLI (Octet), IgG on anti-human Fc sensor, rhCD39-ECD-His 10-300 nM, 1:1 fit
Method: The kinetic data was globally fit with a simple 1:1 Langmuir binding model to yield on-rate (kon) and off-rate (koff) values. The equilibrium dissociation constants (KD) were calculated from the kon and koff values. Binding kinetics were measured using the Octet Red96 system (ForteBio) at 25° C. in running buffer (1× Pall ForteBio Kinetics Buffer diluted into PBS or Tris pH 7.4). […] Dissociation of the complex was monitored upon exposure of the sensors to running buffer once again. […]
observation.type: log10 koff (log10 of the value in s⁻¹)

[[record]]
binder = "27577 (antibody, V domains shown) VH: QVQLVQSGAEVKKPGSSVKVSCKASGGAFSSYAIGWVRQAPGQGLEWMGGIIPTFGTANYAQKFQGRVTITADESTSTAYMELSSLRSEDTAVYYCARDGGGYQHHYFDLWGRGTLVTVSS VL: EIVMTQSPATLSVSPGERATLSCRASQSVGSNLAWYQQKPGQAPRLLIYGASTRATGIPARFSGSGSGTEFTLTISSLQSEDFAVYYCQQLTKWPLTFGGGTKVEIKR"
observed = -0.44

[[record]]
binder = "27568 (antibody, V domains shown) VH: QVQLVQSGAEVKKPGSSVKVPCKASGGTFSSYAISWVRQAPEQGLEWMGSIIPIFGTANYAQKFQGRVTITADESTSTAYMELSSLRSEDTAVYYCAGESGGYRDHKLDVWGQGTVVTVSS VL: EIVLTQSPATLSLSPGERATLSCRASQSVSSYLAWYQQKPGQAPRLLIYDASNRATGIPARFSGSGSGTDFTLTISSLEPEDFAVYYCQQSVFWPITFGGGTKVEIKR"
observed = -1.33

[[record]]
binder = "27597 (antibody, V domains shown) VH: QVQLVQSGAEVKKPGSSVKVSCKASGGTFSSYAISWVRQAPGQGLEWMGSIIPIFGTANYAQKFQGRVTITADESTSTAYMELSSLRSEDTAVYYCAREGRGYDSSRYYKFWFDPWGQGTLVTVSS VL: EIVLTQSPATLSLSPGERATLSCRASQSVSSYLAWYQQKPGQAPRLLIYDASNRATGIPARFSGSGSGTDFTLTISSLEPEDFAVYYCQQFVLWPRTFGGGTKVEIKR"
observed = -1.04

[[record]]
binder = "27590 (antibody, V domains shown) VH: QVQLVQSGAEVKKPGSSVKVSCKASGGTFSNYAISWVRQAPGQGLEWMGGIIPIFGTANYAQKFQGRVTITADESTSTAYMELSSLRSEDTAVYYCARGPTVTATTSIGTHNWFDPWGQGTLVTVSS VL: EIVLTQSPATLSLSPGERATLSCRASQSVSSYLAWYQQKPGQAPRLLIYDASNRATGIPARFSGSGSGTDFTLTISSLEPEDFAVYYCQQRNFYPPTFGGGTKVEIK"
observed = -1.64

[[record]]
binder = "27587 (antibody, V domains shown) VH: QVQLVQSGAEVKKPGSSVKVSCKASGGTFSSYAISWVRQAPGQGLEWMGSIIPIFGTANYAQKFQGRVTITADESTSTAYMELSSLRSEDTAVYYCARESGGYRDHKLDVWGQGTMVTVSS VL: EIVLTQSPATLSLSPGERATLSCRASQSVSSYLAWYQQKPGQAPRLLIYDASKRATGIPARFSGSGSGTDFTLTISSLEPEDFAVYYCQQDVLWPLTFGGGTKVEIKR"
observed = -2.15

[[record]]
binder = "29871 (antibody, V domains shown) VH: QVQLVQSGAEVKKPGASVKVSCKASGYTFQSYYMHWVRQAPGQGLEWMGKINPSGGSTWYAQKFQGRVTMTRDTSTSTVYMELSSLRSEDTAVYYCARGKREGGTEYLRHWGQGTLVTVSS VL: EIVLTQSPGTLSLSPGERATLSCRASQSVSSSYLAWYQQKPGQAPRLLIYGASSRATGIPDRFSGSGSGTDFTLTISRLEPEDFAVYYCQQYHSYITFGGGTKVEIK"
observed = -1.18

[[record]]
binder = "27596 (antibody, V domains shown) VH: QVQLVQSGAEVKKPGSSVKVSCKASGGTFSSYAISWVRQAPGQGLEWMGGIIPIFGTANYAQKFQGRVTITADESTSTAYMELSSLRSEDTAVYYCARDPLGIRKHWFDPWGQGTLVTVSS VL: EIVMTQSPATLSLSPGERATLSCRASQSVSSYLAWYQQKPGQAPRLLIYDASNRATGIPARFSGSGSGTDFTLTISSLEPEDFAVYYCQQHTVWPITFGGGTKVEIKR"
observed = -1.27

